B1: H2-Kb / Ed16-30 (parent complex)
chain 1: GEQVEQRPPHLSVREGDSAVIICTYTDPNSYYFFWYKQEPGAGLQLLMKVFSSTEINEGQGFTVLLNKKDKQLSLNLTAAHPGDSAVYFCAVSEPSSGQKLVFGQGTILKVYL
chain 2: EAAVTQSPRNKVAVTGGKVTLSCNQTNNHNNMYWYRQDTGHGLRLIHYSYGAGSTEKGDIPDGYKASRPSQENFSLILELATPSQTSVYFCAGRDTGQLYFGEGSKLTVL
chain 3: not shown
chain 4: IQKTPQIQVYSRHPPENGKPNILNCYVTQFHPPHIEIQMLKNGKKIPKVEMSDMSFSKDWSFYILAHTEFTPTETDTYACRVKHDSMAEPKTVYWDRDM
chain 5: SIINFEKL

# Variants of: B1
# assay_summary: % of reporter cells activated (NFAT-GFP), raw; note: test concentration or dose not given here
attribute_measured: ratio to parent

{"mutation": "chain 5 I2W", "ratio to parent": 0.866}
{"mutation": "chain 5 I2R", "ratio to parent": 0.968}
{"mutation": "chain 5 F5Y", "ratio to parent": 1.14}
{"mutation": "chain 5 F5M", "ratio to parent": 1.28}
{"mutation": "chain 5 L8V", "ratio to parent": 1}

(a) chain 5 F5K
(b) chain 5 I3Y
(c) chain 5 N4S
(d) chain 5 S1L
(e) chain 5 N4C
In: Sort the 5 variants by ratio to parent; largest first, smallest last. Give the labels in the order requested.
Out: a, b, d, e, c
(a: 1.04, b: 0.607, d: 0.313, e: 0.0363, c: 0.0223)

(a) chain 5 F5T
(b) chain 5 I2Y
In: Given the listed records, identify the one among a and b with higher ratio to parent. # respond with the chosen item's label
Out: a

These data points were gathered from paper PMC11480844.
